Recorded IC50 by entry
tested on: RT112/84; experiment: Cellular activity test (Cell titer-Glo), RT112/84; format: cell-based; conditions: Homo sapiens, RT112/84, bladder cancer cell with abnormal FGFR, 72 h, read-out: Inhibitory activity against cells (IC50) RT112/84

>  <COMPOUND>
C=CC(=O)N1C[C@@H](Nc2ncc3cc(-c4c(Cl)c(OC)cc(OC)c4Cl)ccc3n2)C[C@H]1COC

>  <TESTED TARGET>
RT112/84

>  <IC50, nM>
97

$$$$
>  <COMPOUND>
C=CC(=O)N1CC[C@H](Nc2ncc3cc(-c4c(Cl)c(OC)cc(OC)c4Cl)ccc3n2)C1

>  <TESTED TARGET>
RT112/84

>  <IC50, nM>
56

$$$$
>  <COMPOUND>
C=CC(=O)N1C[C@@H](C)[C@H](Nc2ncc3cc(-c4c(Cl)c(OC)cc(OC)c4Cl)ccc3n2)C1

>  <TESTED TARGET>
RT112/84

>  <IC50, nM>
77

$$$$
>  <COMPOUND>
C=CC(=O)N1C[C@@H](Nc2ncc3cc(-c4c(Cl)c(OC)cc(OC)c4Cl)ccc3n2)C[C@H]1C(=O)N1CCCC1

>  <TESTED TARGET>
RT112/84

>  <IC50, nM>
54

$$$$
>  <COMPOUND>
C=CC(=O)N1C[C@@H](Nc2ncc3cc(-c4c(Cl)c(OC)cc(OC)c4Cl)ccc3n2)C[C@H]1CNS(C)(=O)=O

>  <TESTED TARGET>
RT112/84

>  <IC50, nM>
65

$$$$
>  <COMPOUND>
C=CC(=O)N1C[C@@H](Nc2ncc3cc(-c4c(Cl)c(OC)cc(OC)c4Cl)ccc3n2)C[C@H]1CO

>  <TESTED TARGET>
RT112/84

>  <IC50, nM>
40

$$$$
>  <COMPOUND>
C=CC(=O)N1CC2(CC(Nc3ncc4cc(-c5c(Cl)c(OC)cc(OC)c5Cl)ccc4n3)C2)C1

>  <TESTED TARGET>
RT112/84

>  <IC50, nM>
161

$$$$
>  <COMPOUND>
C=CC(=O)N1C[C@@H](Nc2ncc3cc(-c4c(Cl)c(OC)cc(OC)c4Cl)ccc3n2)C[C@H]1C(C)(C)O (stereo in doubt)

>  <TESTED TARGET>
RT112/84

>  <IC50, nM>
70

$$$$
>  <COMPOUND>
C=CC(=O)N1C[C@@H](Nc2ncc3cc(-c4c(Cl)c(OC)cc(OC)c4Cl)ccc3n2)C[C@H]1C(=O)N1CCC1

>  <TESTED TARGET>
RT112/84

>  <IC50, nM>
60

$$$$
>  <COMPOUND>
C=CC(=O)N1C[C@@H](Nc2ncc3cc(-c4c(Cl)c(OC)cc(OC)c4Cl)ccc3n2)C[C@H]1CF

>  <TESTED TARGET>
RT112/84

>  <IC50, nM>
153

$$$$
>  <COMPOUND>
C=CC(=O)N1C[C@@H](Nc2ncc3cc(-c4c(Cl)c(OC)cc(OC)c4Cl)ccc3n2)C[C@@H]1CO

>  <TESTED TARGET>
RT112/84

>  <IC50, nM>
50

$$$$
